assayedTarget: T1, L-selectin (LS-Rg) (Homo sapiens, UniProt P14151 P14151:39-332)
T1 chain: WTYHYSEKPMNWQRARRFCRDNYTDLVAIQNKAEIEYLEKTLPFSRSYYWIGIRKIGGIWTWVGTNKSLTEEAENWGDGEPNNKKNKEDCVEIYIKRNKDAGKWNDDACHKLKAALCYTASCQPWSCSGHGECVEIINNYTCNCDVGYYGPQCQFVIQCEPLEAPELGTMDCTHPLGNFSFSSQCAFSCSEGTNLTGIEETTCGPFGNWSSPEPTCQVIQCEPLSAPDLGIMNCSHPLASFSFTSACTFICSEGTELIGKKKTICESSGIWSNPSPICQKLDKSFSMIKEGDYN
assayProcedure: filter; 4 C, HSMC; 9.2 nM at room temp
setupConditions: tags: human IgG2 Fc fusion (provided by A. Varki); label: 32P; hairpin
assayMetric: pKd
pKd is defined as minus the log10 of a concentration measured in mol/L.

Query: Could you tell me which pKd is on file for F13.48 (ssRNA, 2'-NH2 all C and U) RNA: GGGAGGACGAUGCGGAAAGUUAUGAGUCCGUAUAUCAAGGUCGACAUGUGUGAAUCAGACGACUCGCCCGA ?
Response: 7.80

Where do the numbers come from? From patent US6001988.
